Target: T1, Pif1p (yeast, UniProt P07271 40-859)
T1 sequence: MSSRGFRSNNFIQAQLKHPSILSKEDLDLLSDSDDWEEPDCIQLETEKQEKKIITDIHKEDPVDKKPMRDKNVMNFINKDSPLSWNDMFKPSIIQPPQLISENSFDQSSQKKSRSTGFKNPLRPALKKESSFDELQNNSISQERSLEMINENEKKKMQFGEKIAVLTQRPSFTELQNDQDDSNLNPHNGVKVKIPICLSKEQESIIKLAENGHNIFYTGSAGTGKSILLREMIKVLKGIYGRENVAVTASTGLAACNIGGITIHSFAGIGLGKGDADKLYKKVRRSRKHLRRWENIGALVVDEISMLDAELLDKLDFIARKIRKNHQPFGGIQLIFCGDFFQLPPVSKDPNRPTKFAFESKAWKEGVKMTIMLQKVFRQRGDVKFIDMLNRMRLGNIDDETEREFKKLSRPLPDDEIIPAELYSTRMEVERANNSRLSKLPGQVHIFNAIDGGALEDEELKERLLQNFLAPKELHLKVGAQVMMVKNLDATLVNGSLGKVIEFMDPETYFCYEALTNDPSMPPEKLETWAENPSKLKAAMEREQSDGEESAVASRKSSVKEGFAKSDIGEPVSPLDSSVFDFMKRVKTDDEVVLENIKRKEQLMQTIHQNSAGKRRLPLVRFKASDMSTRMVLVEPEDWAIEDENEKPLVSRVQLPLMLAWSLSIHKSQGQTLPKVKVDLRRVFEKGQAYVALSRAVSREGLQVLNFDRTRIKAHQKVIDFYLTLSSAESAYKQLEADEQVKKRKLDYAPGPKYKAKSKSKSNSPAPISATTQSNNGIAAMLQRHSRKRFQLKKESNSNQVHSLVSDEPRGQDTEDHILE
Test: fluorescence anisotropy
pKd: −log10 of the molar value.

{"columns": ["BINDER", "pKd"],
 "data": [
  ["TTTTTTTTTTTT (ssDNA) [FAM-T12]", 7.60]
]}

Data credit: paper PMC5041479
